Sourced from BindingDB's records for doi:10.1016/j.ejmech.2019.01.048

target: Transient receptor potential cation channel subfamily M member 4 (Homo sapiens, UniProt Q8TD43)
Sequence (Q8TD43 whole entry): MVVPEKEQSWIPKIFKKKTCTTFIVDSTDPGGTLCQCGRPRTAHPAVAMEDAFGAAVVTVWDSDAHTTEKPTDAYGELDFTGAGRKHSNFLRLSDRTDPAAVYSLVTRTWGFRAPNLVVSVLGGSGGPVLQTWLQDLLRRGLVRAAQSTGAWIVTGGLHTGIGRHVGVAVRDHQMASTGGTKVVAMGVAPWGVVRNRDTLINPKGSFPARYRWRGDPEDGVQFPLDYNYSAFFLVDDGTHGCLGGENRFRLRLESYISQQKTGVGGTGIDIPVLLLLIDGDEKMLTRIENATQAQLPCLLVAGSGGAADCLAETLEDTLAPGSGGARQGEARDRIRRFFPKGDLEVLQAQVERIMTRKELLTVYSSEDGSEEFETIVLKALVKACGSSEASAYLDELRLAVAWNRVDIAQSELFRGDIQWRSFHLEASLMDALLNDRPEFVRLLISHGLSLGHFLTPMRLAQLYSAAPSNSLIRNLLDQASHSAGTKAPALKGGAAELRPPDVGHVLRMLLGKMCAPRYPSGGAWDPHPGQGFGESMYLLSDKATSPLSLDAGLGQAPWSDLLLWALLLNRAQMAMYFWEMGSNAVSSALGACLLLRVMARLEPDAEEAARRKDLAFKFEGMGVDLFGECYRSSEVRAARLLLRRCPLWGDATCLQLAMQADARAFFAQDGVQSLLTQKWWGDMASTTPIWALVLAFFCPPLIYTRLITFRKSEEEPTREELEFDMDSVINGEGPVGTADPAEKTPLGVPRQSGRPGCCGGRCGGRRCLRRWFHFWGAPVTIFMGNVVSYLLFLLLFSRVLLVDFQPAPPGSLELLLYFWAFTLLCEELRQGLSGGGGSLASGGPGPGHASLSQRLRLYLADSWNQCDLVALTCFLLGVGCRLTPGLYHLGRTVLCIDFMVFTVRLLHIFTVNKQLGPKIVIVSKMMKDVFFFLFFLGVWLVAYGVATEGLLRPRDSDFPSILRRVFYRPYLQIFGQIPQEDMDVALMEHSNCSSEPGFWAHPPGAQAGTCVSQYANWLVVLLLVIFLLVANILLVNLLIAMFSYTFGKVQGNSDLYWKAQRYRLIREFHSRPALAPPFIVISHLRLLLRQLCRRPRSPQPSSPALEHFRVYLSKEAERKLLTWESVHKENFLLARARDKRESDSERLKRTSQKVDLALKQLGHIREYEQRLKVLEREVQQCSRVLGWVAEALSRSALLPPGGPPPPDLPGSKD
Reported Metric: IC50

1) Oc1cc2ccccc2c2ccccc12 = 29 µM
